# Assay Procedure: NCI Yeast Anticancer Drug Screen. Data for the rad52 strain (AID 147);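 further: 0% = growth of vehicle-treated control cultures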
# Experimental Conditions: S. cerevisiae rad52 mutant growth inhibition; at 11.0 µM; active compounds read high
# Procedure: Growth inhibition of yeast strains with defined genetic alterations is measured as a screen for potential anti-cancer activity. Selected strains with alterations in DNA damage repair or cell cycle control were exposed to compounds and growth inhibition was measured relative to vehicle treated controls. The strain used in this assay is rad52
Compounds without any hit were thinned out: in the full panel of roughly 79,000, 15% have a hit.
Metric: growth inhibition (%)
Answers are plain numbers, in %.

[
  {
    "Compound": "CCCC/C=C/C(CC)(C(=O)OCC)C(=O)OCC",
    "Metric": "growth inhibition",
    "Unit Abbrev": "%",
    "Result Value": -4
  }
]

Provide reported growth inhibition for each item, in the same order as listed.
1. CCCCCCCCCC/C=C\C(=O)O
2. NC(=S)N/N=C\c1nccc2ccccc12
3. O=C(Nc1ccccc1)OCCc1ccc(Cl)c(Cl)c1

1. -9
2. 40
3. 20

From: PubChem BioAssay (NCI)
